- METHOD: qHTS assay to identify inhibitors of the type 1 interferon - major histocompatibility complex class I in skeletal muscle: Counter screen cell viability and HiBit confirmation (AID 1347412); further: potency means the concentration at half of the fitted maximal effect; nearly all actives have a fitted effect of over 60% in size
- TEST PARAMETERS: iHSKM muscle cells + IFN-b, HiBiT or CellTiter-Glo, 24 h; HiBiT
Records with an inconclusive call do not appear. Active and inactive are the calls of the source. The call rests on the fitted dose curve; in most records, active means well fitted inhibition curve with a large enough effect; inconclusive means small, poorly fitted or top-dose-only effect; inactive means no such curve, though single readings can be large or run the other way.
MEASUREMENT TYPE: Potency

Reported Potency for `COc1ccc(N2C(=O)N(c3c(C)cccc3Cl)Cc3cnc(Nc4ccc(C5CCN(C)CC5)cc4OC)nc32)nc1` was 14 µM (active)

Reported Potency for `C[C@H](NC(=O)/C(C#N)=C/c1cccc(Br)n1)c1ccccc1` was 7.01 µM (active)

Reported Potency for `CC(=O)Nc1cc(Oc2ccc3c(nc(Nc4ccc(F)cc4F)n3C)c2C)ccn1` was 1.11 µM (active)

Reported Potency for `COC1=C2C[C@H](C)C[C@H](OC)[C@H](O)[C@@H](C)/C=C(/C)[C@H](OC(N)=O)[C@@H](OC)/C=C\C=C(\C)C(=O)NC(=CC1=O)C2=O` was 0.0279 µM (active)
